target: Acetylcholinesterase (Homo sapiens, UniProt P22303)
Sequence (P22303 whole entry): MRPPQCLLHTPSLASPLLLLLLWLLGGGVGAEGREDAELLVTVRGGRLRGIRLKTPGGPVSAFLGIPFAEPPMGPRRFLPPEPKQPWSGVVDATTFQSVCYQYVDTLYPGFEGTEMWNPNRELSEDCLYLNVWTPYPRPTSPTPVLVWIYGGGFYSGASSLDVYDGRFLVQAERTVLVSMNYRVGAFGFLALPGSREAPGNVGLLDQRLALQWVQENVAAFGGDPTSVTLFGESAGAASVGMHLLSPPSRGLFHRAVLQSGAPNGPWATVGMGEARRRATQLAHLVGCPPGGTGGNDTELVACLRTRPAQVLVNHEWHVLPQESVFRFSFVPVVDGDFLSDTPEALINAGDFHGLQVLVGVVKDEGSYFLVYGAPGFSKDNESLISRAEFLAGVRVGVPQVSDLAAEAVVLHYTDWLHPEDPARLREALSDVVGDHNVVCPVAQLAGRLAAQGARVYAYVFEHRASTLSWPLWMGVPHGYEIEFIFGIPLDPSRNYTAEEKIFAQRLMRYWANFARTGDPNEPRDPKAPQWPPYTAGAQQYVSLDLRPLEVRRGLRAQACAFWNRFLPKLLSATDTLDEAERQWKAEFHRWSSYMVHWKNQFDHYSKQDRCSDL
recordedEndpoint: IC50
State the value, then name its unit.

In: I am curious: what IC50 value has been reported for O=C1c2ccccc2C(=O)c2c(O)c(O)cc(O)c21 ?
Out: 300 nM
